Molecular target: Cytochrome P450 2C19 (Homo sapiens) (UniProt P33261)
Sequence (P33261 whole entry, looked up): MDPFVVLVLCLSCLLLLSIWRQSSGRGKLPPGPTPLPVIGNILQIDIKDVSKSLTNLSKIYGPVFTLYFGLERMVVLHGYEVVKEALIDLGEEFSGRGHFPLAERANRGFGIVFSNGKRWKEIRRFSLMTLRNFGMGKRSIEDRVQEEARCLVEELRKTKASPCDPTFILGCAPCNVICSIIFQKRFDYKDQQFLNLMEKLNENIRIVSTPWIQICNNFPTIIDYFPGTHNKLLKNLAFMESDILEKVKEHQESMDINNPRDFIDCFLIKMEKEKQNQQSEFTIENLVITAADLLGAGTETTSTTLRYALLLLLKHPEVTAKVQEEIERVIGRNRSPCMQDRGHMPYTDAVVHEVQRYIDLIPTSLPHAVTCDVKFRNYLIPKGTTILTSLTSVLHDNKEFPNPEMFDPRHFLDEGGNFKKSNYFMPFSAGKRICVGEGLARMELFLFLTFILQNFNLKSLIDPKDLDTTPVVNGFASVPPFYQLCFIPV
Assay: Cytochrome P450 Family 2 Subfamily C Member 19 (CYP2C19) small molecule antagonists: luciferase reporter qHTS assay (AID 1671197); further: nearly all actives have a fitted effect of over 65% in size
Conditions: P450-Glo CYP2C19 enzyme, luciferin luminescence, 1 h; series mostly up to 115 µM
Records with an inconclusive call do not appear. The source made the active and inactive calls. The call rests on the fitted dose curve; in most records, active means well fitted inhibition curve with a large enough effect in the repeat runs; inconclusive means weak or mixed curves; inactive means no such curve, though single readings can be large or run the other way.
Could you please pick one outcome from this set? true (1) = active, false (0) = inactive

These recorded examples may help you get a feel for the data.
FC(F)OC(F)(F)C(F)Cl (centres undefined)
false (0)
CCCC[N+](CCCC)(CCCC)CCCC
false (0)

Request: For this compound, state the assay outcome: CCCC1CCCCN1 (centres undefined)
Response: false (0)

Request: How about this compound: NCCc1cc(O)c(O)cc1O
Response: true (1)

----------
Test: qHTS assay to identify small molecule HDAC inhibitors (AID 1259364);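 further: wild-type HCT-116 cells with endogenous class I/II HDAC activity; top concentration of the series differs between compounds; on the % scale 0 is the no-effect control and ±100 the full control effect; nearly all actives have a fitted effect of over 45% in size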
Conditions: HCT-116 HDAC-Glo I/II luminescence, 2 h; series mostly up to 92.4 µM
Inconclusive results are not listed. Activity calls are given as the source filed them. Calls follow the shape of the dose curve; as a rule, active = well fitted inhibition curve with a large enough effect in the repeat runs; inconclusive = weak or mixed curves; inactive = flat fitted curve, though single readings scatter.
Could you please pick one outcome from this set? yes = active, no = inactive

These recorded examples may help you get a feel for the data.
CC(C)(C)OOC(C)(C)CCC(C)(C)OOC(C)(C)C
no
COC1CC(=C(c2cccs2)c2cccs2)C[N+](C)(C)C1 (configuration not stated)
no
Cc1nc(N(C)C)nc(OC(=O)N(C)C)c1C
no

Continue with the compound presented below.
Request: For this compound, state the assay outcome: CCC(C)(C)O
Response: no

----------
Assay: qHTS assay to identify small molecule agonists of H2AX (AID 1224845); further: on the % scale 0 is the no-effect control and ±100 the full control effect
Details: CHO-K1 phospho-H2AX Ser139 HTRF, 3 h; series mostly up to 154 µM
Records with an inconclusive call do not appear. Active and inactive are the calls of the source. Calls come from the whole dose curve; as a rule, active = well fitted activation curve with a large enough effect in the signal ratio in the repeat runs (not every such curve was filed as active); inconclusive = weak or mixed curves; inactive = flat fitted curve, though single readings scatter; the % refers to the signal ratio.
Could you please pick one outcome from this set? active, inactive

These recorded examples may help you get a feel for the data.
COCc1cnc(C2=NC(C)(C(C)C)C(=O)N2)c(C(=O)O)c1 (stereo unspecified)
inactive
CN[C@@H](C)[C@H](O)c1ccccc1
inactive
c1ccc2c(c1)sc1ccccc12
inactive
O=C(N/N=C/c1ccc([N+](=O)[O-])o1)c1cc([N+](=O)[O-])cc([N+](=O)[O-])c1O
inactive
CN1C(=O)CN=C(c2ccccc2)c2cc([N+](=O)[O-])ccc21
inactive

Request: For this molecule, state the assay outcome: NC(=O)CF
Response: inactive

Request: How about this molecule: CCOP(=S)(OCC)SCSc1cc(Cl)ccc1Cl
Response: inactive

Request: How about this molecule: CC(C)(C)NCC(O)c1cc(Cl)c(N)c(C(F)(F)F)c1 (stereo unspecified)
Response: inactive

Request: How about this molecule: CC(=O)OC(c1ccccc1)C(Cl)(Cl)Cl (stereo unspecified)
Response: inactive

Request: How about this molecule: CCNC(=O)NC(=O)/C(C#N)=N/OC
Response: inactive

----------
Tested on: thyroid hormone receptor (rat, GH3 cells)
Test: qHTS assay to identify small molecule agonists of the thyroid receptor (TR) signaling pathway (AID 743066); further: on the % scale 0 is the no-effect control and ±100 the full control effect
Details: GH3.TRE-Luc cells, TR agonist luciferase, 24 h; series mostly up to 83.9 µM
Records with an inconclusive call do not appear. Calls of active or inactive are those of the source. The call rests on the fitted dose curve.
Could you please pick one outcome from this set? yes = active, no = inactive

Request: For this molecule, state the assay outcome: C=CCc1ccccc1O
Response: no

Request: How about this molecule: CC(C)(C)NCC(O)c1ccccc1Cl (configuration not stated)
Response: no

Request: How about this molecule: O=C(O)C(O)C(O)C(=O)O (configuration not stated)
Response: no

Request: How about this molecule: CCOC(=O)NC(O)C(Cl)(Cl)Cl (configuration not stated)
Response: no

Request: How about this molecule: CCCCC(CC)COC(=O)c1c(Br)c(Br)c(Br)c(Br)c1C(=O)OCC(CC)CCCC (configuration not stated)
Response: no

Request: How about this molecule: CN[C@@H](C)[C@H](O)c1ccccc1
Response: no

Request: How about this molecule: CCc1ccccc1N
Response: no

Request: How about this molecule: Nc1ccccc1C(=O)OCCc1ccccc1
Response: no

Request: How about this molecule: C=C(C)C(=O)OCCCCOC(=O)C(=C)C
Response: no
